molecular target: T1, human CD33 (human, UniProt P20138 18-364); assay: flow cytometry, human primary monocytes; parameters: reference not given here;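 note: binding of anti-CD33 antibodies at 10 ug/ml to human primary monocytes, 1 h on ice, detected by PE-labelled secondary antibody, flow cytometry readout as mean fluorescence intensity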
T1 construct: CD33 on human primary dendritic cells, macrophages, monocytes and T cells and on CHO cells expressing recombinant human CD33; also called Siglec-3; hCD33
T1 sequence (P20138 18-364): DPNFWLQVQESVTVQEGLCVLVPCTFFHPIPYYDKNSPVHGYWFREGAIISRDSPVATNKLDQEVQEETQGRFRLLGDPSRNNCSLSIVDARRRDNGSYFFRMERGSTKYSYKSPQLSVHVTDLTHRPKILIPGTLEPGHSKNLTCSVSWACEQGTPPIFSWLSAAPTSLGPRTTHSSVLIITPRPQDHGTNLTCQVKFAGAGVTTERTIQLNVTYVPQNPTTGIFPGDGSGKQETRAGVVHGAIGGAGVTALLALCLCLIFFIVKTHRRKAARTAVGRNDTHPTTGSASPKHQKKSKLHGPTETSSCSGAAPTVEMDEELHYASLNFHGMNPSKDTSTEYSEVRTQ
Please mark true if the recorded Monocyte MFI is equal to or greater than 200, and false if it falls below.

* C-9 (antibody, V domains shown, human IgG1) VH: QLQLQESGPGLVKPSETLSLTCTVSGGSISSSSYYWGWIRQPPGKGLEWIGSIYYSGSTYYNPSLKSRVTISVDTSKNQFSLKLSSVTAADTAVYYCARESGFAGLDPWGQGTLVTVSS VL: EIVLTQSPGTLSLSPGERATLSCRASQSVSSSFLAWYQQKPGQAPRLLIYGASSRATGIPDRFSGSGSGTDFTLTISRLEPEDFAVYYCQQSEDWPTFGGGTKVEIK | false
* C-12 (antibody, V domains shown, human IgG1) VH: EVQLLESGGGLVQPGGSLRLSCAASGFTFSNYAMSWVRQAPGKGLEWVSAISGSGGSTYYADSVKGRFTISRDNSKNTLYLQMNSLRAEDTAVYYCARDGSRYSYGLVAYGMDVWGQGTTVTVSS VL: EIVLTQSPGTLSLSPGERATLSCRASQSVSSSFLAWYQQKPGQAPRLLIYGASSRATGIPDRFSGSGSGTDFTLTISRLEPEDFAVYYCQQSQLRPTFGGGTKVEIK | true
* C-68 (antibody, V domains shown, human IgG1) VH: QVQLQESGPGLVKPSQTLSLTCTVSGGSISSGGYYWSWIRQHPGKGLEWIGNIYYSGSTYYNPSLKSRVTISVDTSKNQFSLKLSSVTAADTAVYYCARDLPNSGSPGSDYFDYWGQGTLVTVSS VL: EIVLTQSPGTLSLSPGERATLSCRASQSVSSSYLAWYQQKPGQAPRLLIYGASSRATGIPDRFSGSGSGTDFTLTISRLEPEDFAVYYCQQYDNYPPTFGGGTKVEIK | false
* C-64 (antibody, V domains shown, human IgG1) VH: QVQLVQSGAEVKKPGSSVKVSCKASGGTFSSLAISWVRQAPGQGLEWMGGIIPIFGTANYAQKFQGRVTITADESTSTAYMELSSLRSEDTAVYYCARGTFYSDELFDYWGQGTLVTVSS VL: DIQMTQSPSSVSASVGDRVTITCRASQGISSWLAWYQQKPGKAPKLLIYAASSLQSGVPSRFSGSGSGTDFTLTISSLQPEDFATYYCQQENSYPLTFGGGTKVEIK | false
* C-3 (antibody, V domains shown, human IgG1) VH: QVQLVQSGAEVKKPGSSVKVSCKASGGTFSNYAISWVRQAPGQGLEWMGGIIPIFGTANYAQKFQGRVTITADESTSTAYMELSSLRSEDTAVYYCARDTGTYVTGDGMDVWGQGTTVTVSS VL: EIVMTQSPATLSVSPGERATLSCRASQSVSSNLAWYQQKPGQAPRLLIYGASTRATGIPARFSGSGSGTEFTLTISSLQSEDFAVYYCQQYDVWPITFGGGTKVEIK | false
* C-42 (antibody, V domains shown, human IgG1) VH: QLQLQESGPGLVKPSETLSLTCTVSGGSISSSSYYWGWIRQPPGKGLEWIGSIYYSGSTYYNPSLKSRVTISVDTSKNQFSLKLSSVTAADTAVYYCAREPIYRRGMDVWGQGTTVTVSS VL: EIVLTQSPATLSLSPGERATLSCRASQSVSSYLAWYQQKPGQAPRLLIYDASNRATGIPARFSGSGSGTDFTLTISSLEPEDFAVYYCQQFSNYPTFGGGTKVEIK | false
* C-33 (antibody, V domains shown, human IgG1) VH: EVQLVESGGGLVQPGGSLRLSCAASGFTFSSYWMSWVRQAPGKGLEWVANIKSDGSEKYYVDSVKGRFTISRDNAKNSLYLQMNSLRAEDTAVYYCAREGRPRLGYAAFDIWGQGTMVTVSS VL: DIQMTQSPSSLSASVGDRVTITCRASQSISSYLNWYQQKPGKAPKLLIYAASSLQSGVPSRFSGSGSGTDFTLTISSLQPEDFATYYCQQQYDLPITFGGGTKVEIK | false
* C-34 (antibody, V domains shown, human IgG1) VH: EVQLVESGGGLVQPGGSLRLSCAASGFTFSSYWMSWVRQAPGKGLEWVANINQDGSEKYYVDSVKGRFTISRDNAKNSLYLQMNSLRAEDTAVYYCARDHGATGPDFDLWGRGTLVTVSS VL: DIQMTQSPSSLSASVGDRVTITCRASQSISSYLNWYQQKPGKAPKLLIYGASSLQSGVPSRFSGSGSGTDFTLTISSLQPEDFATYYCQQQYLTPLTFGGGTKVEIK | false
* C-35 (antibody, V domains shown, human IgG1) VH: QLQLQESGPGLVKPSETLSLTCTVSGGSISSSSYAWGWIRQPPGKGLEWIGNIYYSGSTYYNPSLKSRVTISVDTSKNQFSLKLSSVTAADTAVYYCARAGYRSPSGFDYWGQGTLVTVSS VL: DIQMTQSPSSVSASVGDRVTITCRASQGISSWLAWYQQKPGKAPKLLIYAASNLQSGVPSRFSGSGSGTDFTLTISSLQPEDFATYYCQQGNAHPTFGGGTKVEIK | false
* C-90 (antibody, V domains shown, human IgG1) VH: EVQLVESGGGLVQPGGSLRLSCAASGFTFSSYWMSWVRQAPGKGLEWVANINQDGSEKYYVDSVKGRFTISRDNAKNSLYLQMNSLRAEDTAVYYCAREAGAVTGYRWFDPWGQGTLVTVSS VL: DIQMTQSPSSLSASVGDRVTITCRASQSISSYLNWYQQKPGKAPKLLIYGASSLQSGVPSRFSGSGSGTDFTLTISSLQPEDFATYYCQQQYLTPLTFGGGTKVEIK | true
